test: Biodistribution in Daudi xenograft bearing mice; format: in vivo, mouse; conditions: female, CB-17 SCID, mouse, stomach, iv, total radioactivity, 1h p.i., tracer only, i.v.; γ-counter; means ± SD, n=4-5 (68Ga: n=4); read-out: Biodistribution stomach
Where a SMILES comes first, the peptide text is derived from it. Side-chain parts run from the residue outwards. [ ]: non-standard residue; d: D form. The star is where a group is joined. DOTA = O=C(O)CN1CCN(CC(=O)O)CCN(CC(=O)*)CCN(CC(=O)O)CC1; 2Nal = N[C@@H](Cc1ccc2ccccc2c1)C(=O)O; dNMeOrn = CN[C@H](CCCN)C(=O)O; 4Abz = Nc1ccc(C(=O)O)cc1
measured endpoint: tissue uptake at 1 h
State the value, then name its unit.

Prompt: Query: tissue uptake at 1 h; subject: C[C@@H](NC(=O)[C@@H](CCCNC(=N)N)NC(=O)CN1CCN(CC(=O)O)CCN(CC(=O)O)CCN(CC(=O)O)CC1)C(=O)Nc1ccc(C(=O)NCCC[C@@H]2C(=O)N[C@@H](CCCNC(=N)N)C(=O)N[C@@H](Cc3ccc4ccccc4c3)C(=O)NCC(=O)N[C@H](Cc3ccc(O)cc3)C(=O)N2C)cc1 [[^68Ga]DOTA-r-a-ABA-CPCR4, metal not drawn] (cyclo([2Nal]G[dY][dNMeOrn]([4Abz-dA-dR-DOTA])R))
Response: 1.2 %ID/g

---

tissue uptake at 1 h reference
test: Biodistribution in Daudi xenograft bearing mice; assay type: in vivo, mouse; conditions: female, CB-17 SCID, mouse, femur, iv, total radioactivity, 1h p.i., tracer only, i.v.; γ-counter; means ± SD, n=4-5 (68Ga: n=4); read-out: Biodistribution femur
Where a SMILES comes first, the peptide text is derived from it. Side-chain parts run from the residue outwards. [ ]: non-standard residue; d: D form. The star is where a group is joined. DOTA = O=C(O)CN1CCN(CC(=O)O)CCN(CC(=O)*)CCN(CC(=O)O)CC1; dTyr(3-I) = N[C@H](Cc1ccc(O)c(I)c1)C(=O)O; 2Nal = N[C@@H](Cc1ccc2ccccc2c1)C(=O)O; dNMeOrn = CN[C@H](CCCN)C(=O)O; 4Abz = Nc1ccc(C(=O)O)cc1
State the answer as a number, implicitly in %ID/g.

compound	tissue uptake at 1 h / %ID/g
C[C@@H](NC(=O)[C@@H](CCCNC(=N)N)NC(=O)CN1CCN(CC(=O)O)CCN(CC(=O)O)CCN(CC(=O)O)CC1)C(=O)Nc1ccc(C(=O)NCCC[C@@H]2C(=O)N[C@@H](CCCNC(=N)N)C(=O)N[C@@H](Cc3ccc4ccccc4c3)C(=O)NCC(=O)N[C@H](Cc3ccc(O)c(I)c3)C(=O)N2C)cc1 [[^68Ga]DOTA-r-a-ABA-iodoCPCR4, metal not drawn] (cyclo([2Nal]G[dTyr(3-I)][dNMeOrn]([4Abz-dA-dR-DOTA])R))	1.41

Please examine the following record next.
Prompt: Query: tissue uptake at 1 h; subject: C[C@@H](NC(=O)[C@@H](CCCNC(=N)N)NC(=O)CN1CCN(CC(=O)O)CCN(CC(=O)O)CCN(CC(=O)O)CC1)C(=O)Nc1ccc(C(=O)NCCC[C@@H]2C(=O)N[C@@H](CCCNC(=N)N)C(=O)N[C@@H](Cc3ccc4ccccc4c3)C(=O)NCC(=O)N[C@H](Cc3ccc(O)cc3)C(=O)N2C)cc1 [[^68Ga]DOTA-r-a-ABA-CPCR4, metal not drawn] (cyclo([2Nal]G[dY][dNMeOrn]([4Abz-dA-dR-DOTA])R))
Response: 1.27

---

test: Biodistribution in Daudi xenograft bearing mice; assay type: in vivo, mouse; settings: female, CB-17 SCID, mouse, blood, iv, total radioactivity, 48h p.i., i.v.; means ± SD, n=4-5; read-out: Biodistribution blood
Where a SMILES comes first, the peptide text is derived from it. Side-chain parts run from the residue outwards. [ ]: non-standard residue; d: D form. The star is where a group is joined. DOTA = O=C(O)CN1CCN(CC(=O)O)CCN(CC(=O)*)CCN(CC(=O)O)CC1; dTyr(3-I) = N[C@H](Cc1ccc(O)c(I)c1)C(=O)O; 2Nal = N[C@@H](Cc1ccc2ccccc2c1)C(=O)O; dNMeOrn = CN[C@H](CCCN)C(=O)O; 4Abz = Nc1ccc(C(=O)O)cc1
measured endpoint: tissue uptake at 48 h (%ID/g)
State the answer as a number, implicitly in %ID/g.

compound	measurement unit	quantitative result
C[C@@H](NC(=O)[C@@H](CCCNC(=N)N)NC(=O)CN1CCN(CC(=O)O)CCN(CC(=O)O)CCN(CC(=O)O)CC1)C(=O)Nc1ccc(C(=O)NCCC[C@@H]2C(=O)N[C@@H](CCCNC(=N)N)C(=O)N[C@@H](Cc3ccc4ccccc4c3)C(=O)NCC(=O)N[C@H](Cc3ccc(O)cc3)C(=O)N2C)cc1 [[^177Lu]DOTA-r-a-ABA-CPCR4, metal not drawn] (cyclo([2Nal]G[dY][dNMeOrn]([4Abz-dA-dR-DOTA])R))	%ID/g	0.01

Prompt: Query: tissue uptake at 48 h; subject: C[C@@H](NC(=O)[C@@H](CCCNC(=N)N)NC(=O)CN1CCN(CC(=O)O)CCN(CC(=O)O)CCN(CC(=O)O)CC1)C(=O)Nc1ccc(C(=O)NCCC[C@@H]2C(=O)N[C@@H](CCCNC(=N)N)C(=O)N[C@@H](Cc3ccc4ccccc4c3)C(=O)NCC(=O)N[C@H](Cc3ccc(O)c(I)c3)C(=O)N2C)cc1 [[^177Lu]DOTA-r-a-ABA-iodoCPCR4, metal not drawn] (cyclo([2Nal]G[dTyr(3-I)][dNMeOrn]([4Abz-dA-dR-DOTA])R))
Response: 0.03

---

assay: Biodistribution in Daudi xenograft bearing mice; assay type: in vivo, mouse; conditions: female, CB-17 SCID, mouse, stomach, iv, with AMD3100, 50 µg per animal, coinjected (CXCR4 competition), total radioactivity, 1h p.i., coinjection of 50 µg AMD3100/animal; n=1; read-out: Biodistribution stomach, + AMD3100
Where a SMILES comes first, the peptide text is derived from it. Side-chain parts run from the residue outwards. [ ]: non-standard residue; d: D form. The star is where a group is joined. DOTA = O=C(O)CN1CCN(CC(=O)O)CCN(CC(=O)*)CCN(CC(=O)O)CC1; 2Nal = N[C@@H](Cc1ccc2ccccc2c1)C(=O)O; dNMeOrn = CN[C@H](CCCN)C(=O)O; 4Abz = Nc1ccc(C(=O)O)cc1
measured endpoint: tissue uptake at 1 h (%ID/g)
State the answer as a number, implicitly in %ID/g.

Prompt: Query: tissue uptake at 1 h; subject: C[C@@H](NC(=O)[C@@H](CCCNC(=N)N)NC(=O)CN1CCN(CC(=O)O)CCN(CC(=O)O)CCN(CC(=O)O)CC1)C(=O)Nc1ccc(C(=O)NCCC[C@@H]2C(=O)N[C@@H](CCCNC(=N)N)C(=O)N[C@@H](Cc3ccc4ccccc4c3)C(=O)NCC(=O)N[C@H](Cc3ccc(O)cc3)C(=O)N2C)cc1 [[^177Lu]DOTA-r-a-ABA-CPCR4, metal not drawn] (cyclo([2Nal]G[dY][dNMeOrn]([4Abz-dA-dR-DOTA])R))
Response: 2.46

---

test: Biodistribution in Daudi xenograft bearing mice; assay type: in vivo, mouse; settings: female, CB-17 SCID, mouse, heart, iv, total radioactivity, 1h p.i., coinjection of 50 µg AMD3100/animal; n=1; read-out: Biodistribution heart, + AMD3100
Where a SMILES comes first, the peptide text is derived from it. Side-chain parts run from the residue outwards. [ ]: non-standard residue; d: D form. The star is where a group is joined. DOTA = O=C(O)CN1CCN(CC(=O)O)CCN(CC(=O)*)CCN(CC(=O)O)CC1; 2Nal = N[C@@H](Cc1ccc2ccccc2c1)C(=O)O; dNMeOrn = CN[C@H](CCCN)C(=O)O; 4Abz = Nc1ccc(C(=O)O)cc1
measured endpoint: tissue uptake at 1 h (%ID/g)
State the answer as a number, implicitly in %ID/g.

Prompt: Query: tissue uptake at 1 h; subject: C[C@@H](NC(=O)[C@@H](CCCNC(=N)N)NC(=O)CN1CCN(CC(=O)O)CCN(CC(=O)O)CCN(CC(=O)O)CC1)C(=O)Nc1ccc(C(=O)NCCC[C@@H]2C(=O)N[C@@H](CCCNC(=N)N)C(=O)N[C@@H](Cc3ccc4ccccc4c3)C(=O)NCC(=O)N[C@H](Cc3ccc(O)cc3)C(=O)N2C)cc1 [[^177Lu]DOTA-r-a-ABA-CPCR4, metal not drawn] (cyclo([2Nal]G[dY][dNMeOrn]([4Abz-dA-dR-DOTA])R))
Response: 1.07

---

experiment: Biodistribution in Daudi xenograft bearing mice; format: in vivo, mouse; conditions: female, CB-17 SCID, mouse, kidney, iv, total radioactivity, 1h p.i., tracer only, i.v.; γ-counter; means ± SD, n=4-5 (68Ga: n=4); read-out: Biodistribution kidney
Where a SMILES comes first, the peptide text is derived from it. Side-chain parts run from the residue outwards. [ ]: non-standard residue; d: D form. The star is where a group is joined. DOTA = O=C(O)CN1CCN(CC(=O)O)CCN(CC(=O)*)CCN(CC(=O)O)CC1; dTyr(3-I) = N[C@H](Cc1ccc(O)c(I)c1)C(=O)O; 2Nal = N[C@@H](Cc1ccc2ccccc2c1)C(=O)O; dNMeOrn = CN[C@H](CCCN)C(=O)O; 4Abz = Nc1ccc(C(=O)O)cc1
tissue uptake at 1 h reference
State the answer as a number, implicitly in %ID/g.

compound	measurement unit	tissue uptake at 1 h
C[C@@H](NC(=O)[C@@H](CCCNC(=N)N)NC(=O)CN1CCN(CC(=O)O)CCN(CC(=O)O)CCN(CC(=O)O)CC1)C(=O)Nc1ccc(C(=O)NCCC[C@@H]2C(=O)N[C@@H](CCCNC(=N)N)C(=O)N[C@@H](Cc3ccc4ccccc4c3)C(=O)NCC(=O)N[C@H](Cc3ccc(O)cc3)C(=O)N2C)cc1 [[^68Ga]DOTA-r-a-ABA-CPCR4, metal not drawn] (cyclo([2Nal]G[dY][dNMeOrn]([4Abz-dA-dR-DOTA])R))	%ID/g	11.5

Please examine the following record next.
Prompt: Query: tissue uptake at 1 h; subject: C[C@@H](NC(=O)[C@@H](CCCNC(=N)N)NC(=O)CN1CCN(CC(=O)O)CCN(CC(=O)O)CCN(CC(=O)O)CC1)C(=O)Nc1ccc(C(=O)NCCC[C@@H]2C(=O)N[C@@H](CCCNC(=N)N)C(=O)N[C@@H](Cc3ccc4ccccc4c3)C(=O)NCC(=O)N[C@H](Cc3ccc(O)c(I)c3)C(=O)N2C)cc1 [[^68Ga]DOTA-r-a-ABA-iodoCPCR4, metal not drawn] (cyclo([2Nal]G[dTyr(3-I)][dNMeOrn]([4Abz-dA-dR-DOTA])R))
Response: 6.25

Value source: paper PMC7381729
